Test system: HOP-18
Assay: NCI tumour cell line growth inhibition, 48 h
Activity calls are given as the source filed them. No stated cut-off is given here; in the data, active = GI50 up to about 1.1 µM and inactive = higher.
Possible outcomes: TRUE = active, FALSE = inactive

{"compound": "C[C@]12CC[C@H](OC3CCCCO3)CC1=CC[C@@H]1C2CC[C@]2(C)/C(=N/OCCC#N)CCC12 (some centres not stated)", "measured-on": "HOP-18", "assigned-label": "FALSE"}
{"compound": "CCCCc1c2cnccc2c(CCCC)c2c1[nH]c1ccccc12", "measured-on": "HOP-18", "assigned-label": "FALSE"}
{"compound": "CC1OC(OCC2OC(Oc3c(-c4ccc(O)cc4)oc4cc(O)cc(O)c4c3=O)C(OC3OCC(O)(CO)C3O)C(O)C2O)C(O)C(O)C1O (configuration not stated)", "measured-on": "HOP-18", "assigned-label": "FALSE"}
{"compound": "Nc1nc(Cl)cc(NCCCCCCCCCCNc2cc(Cl)nc(N)n2)n1", "measured-on": "HOP-18", "assigned-label": "FALSE"}
{"compound": "COc1ccc(OC)c(N2CC(N)C2=O)c1 (configuration not stated)", "measured-on": "HOP-18", "assigned-label": "FALSE"}
{"compound": "COc1cc([C@@H]2c3cc4c(cc3[C@@H](OC(=O)c3ccccc3)C3COC(=O)[C@@H]32)OCO4)cc(OC)c1O (some centres not stated)", "measured-on": "HOP-18", "assigned-label": "FALSE"}
{"compound": "C/C=C/C1=C(Cl)C(=O)[C@@H](Cl)[C@@]1(O)C(=O)OC [(+)-CRYPTOSPORIPSIN]", "measured-on": "HOP-18", "assigned-label": "FALSE"}
{"compound": "CSC(=N)N1N=C2/C(=C/c3ccccc3)CCC[C@H]2[C@H]1c1ccccc1", "measured-on": "HOP-18", "assigned-label": "TRUE"}
{"compound": "COC(=O)C(CC(=O)Nc1ccc(Cl)c(Cl)c1)C(=O)C(=O)NC1C2CC3CC(C2)CC1C3 (configuration not stated)", "measured-on": "HOP-18", "assigned-label": "FALSE"}
{"compound": "COc1ccc2c(OC)c3ccoc3nc2c1O", "measured-on": "HOP-18", "assigned-label": "TRUE"}
{"compound": "NCCn1ccc(NC(c2ccccc2)(c2ccccc2)c2ccccc2)nc1=O", "measured-on": "HOP-18", "assigned-label": "FALSE"}
{"compound": "CCOC(=O)C(=O)C=P(c1ccccc1)(c1ccccc1)c1ccccc1", "measured-on": "HOP-18", "assigned-label": "FALSE"}
{"compound": "O=C1CCC(=O)C(C(=O)CCC(=O)Nc2cccc(Cl)c2)C1 (configuration not stated)", "measured-on": "HOP-18", "assigned-label": "FALSE"}
{"compound": "O=C(OCc1ccccc1)N1N=NC2C3CC(OCc4ccccc4)(OCc4ccccc4)C(O3)C21 (configuration not stated)", "measured-on": "HOP-18", "assigned-label": "FALSE"}
{"compound": "CC(=O)OC1/C=C(\\C)C(OC(C)=O)C/C=C(/C)CCC2C(/C=C/C1=O)C2(C)C (configuration not stated)", "measured-on": "HOP-18", "assigned-label": "FALSE"}
{"compound": "CCOc1ccc(NC(=O)C(=O)CC(=O)c2c(C)[n+]([O-])c3ccccc3[n+]2[O-])cc1", "measured-on": "HOP-18", "assigned-label": "FALSE"}
{"compound": "COc1ccc(OC)c(/C=C/NC=O)c1", "measured-on": "HOP-18", "assigned-label": "FALSE"}
{"compound": "Cc1ccccc1N1C(=O)C2C=CC(n3[nH]c(=O)n(Cc4ccccc4)c3=O)CC2C1=O (configuration not stated)", "measured-on": "HOP-18", "assigned-label": "FALSE"}
{"compound": "O=C1Cc2ccccc2N1/N=C\\c1ccc(O)cc1", "measured-on": "HOP-18", "assigned-label": "FALSE"}
{"compound": "O=C(/C=C/c1ccccc1O)c1ccc([N+](=O)[O-])cc1", "measured-on": "HOP-18", "assigned-label": "FALSE"}
{"compound": "C[C@H](CCC1SC1(C)C)C1CCC2(C)C3=C(CC[C@]12C)[C@@]1(C)CC[C@H](O)C(C)(C)C1CC3 (some centres not stated)", "measured-on": "HOP-18", "assigned-label": "FALSE"}
{"compound": "Cc1ccc(N2Cc3c(ccc4ccccc34)OP2(=O)Oc2ccc(Cl)c(C)c2)cc1 (configuration not stated)", "measured-on": "HOP-18", "assigned-label": "FALSE"}
